tested on: T47D cells; assay: Caspase-3 activity assay (apoptosis) in T47D cells; conditions: T47D cells, 200 nM, 48 hours, relative to untreated control
In the oligonucleotide strings, read from the 5' end, every base follows the letter of its sugar. An asterisk marks phosphorothioate; unmarked linkages are phosphodiester. Other units and linkages are bracketed, terminal groups are in braces. A string of capitals states the bases alone. e = 2'-O-(2-methoxyethyl) (MOE); [5mC] = 5-methylcytosine; d = 2'-deoxy (DNA)
The reader will find reported Fold Increase over UTC (caspase activity) values listed item by item below.

Substance: 328433 (antisense e[5mC]*e[5mC]*eT*e[5mC]*e[5mC]*dT*dT*dG*dT*dG*dG*dG*d[5mC]*dA*dA*eA*eA*eT*e[5mC]*e[5mC]) [compound 328433]
Obs value: 1.0
//
Substance: 328378 (e[5mC]*eA*e[5mC]*e[5mC]*e[5mC]*dT*d[5mC]*d[5mC]*dA*dG*dT*dG*d[5mC]*dT*dG*eT*eT*eA*eG*eT; antisense) [compound 328378]
Obs value: 1.0
//
Substance: 328415 (antisense eT*eG*e[5mC]*e[5mC]*eA*dT*dG*dA*dG*dA*dT*dT*d[5mC]*dA*dA*e[5mC]*eA*eG*eT*e[5mC]) [compound 328415]
Obs value: 1.1

response.value for 328371 (eT*e[5mC]*e[5mC]*eA*eT*dA*dG*d[5mC]*dT*dT*dA*dG*d[5mC]*dA*dG*eG*eT*e[5mC]*e[5mC]*eA; antisense) [compound 328371] (field: Fold Increase over UTC (caspase activity)) = 1.2

// Fold Increase over UTC (caspase activity) value for 328416 (antisense eA*e[5mC]*eA*eT*eT*dG*d[5mC]*dT*dA*dT*d[5mC]*dA*dT*dA*dA*eG*eA*eG*e[5mC]*eT) [compound 328416] : 0.9

Field Fold Increase over UTC (caspase activity) (entry 328405 (antisense e[5mC]*eT*eG*eA*eA*d[5mC]*dA*dG*dG*dG*dT*dA*dA*dA*dA*eT*e[5mC]*eA*e[5mC]*eT) [compound 328405] ) reads 1.0

response.value for 328377 (eT*e[5mC]*eA*e[5mC]*eT*d[5mC]*d[5mC]*dT*dA*dA*dA*dG*dG*dT*dT*e[5mC]*eA*eA*eG*eT; antisense) [compound 328377] (field: Fold Increase over UTC (caspase activity)) = 0.7

Fold Increase over UTC (caspase activity) reported for this substance 328647 (eG*eG*eA*eG*eT*dA*dG*dA*dT*dG*dA*dT*dG*dG*dT*eT*eA*eG*e[5mC]*e[5mC]; antisense) [compound 328647] : 0.9
